B1: TSN (parent)
chain: FVELQGFLAAEQDIREEIRKVVQS

# Variants of: B1
# EXPERIMENT_DESCRIPTION: protein stability index of a GFP-peptide fusion (GPS, HEK-293T) (PSI 1-6); higher = more stable;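 further: lentivirally expressed fusions sorted by FACS into six bins by GFP to DsRed ratio, PSI derived from sequencing read proportions per bin multiplied by bin number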
# CONDITION_NOTES: c terminus: a fixed tail appended
Reported values of protein stability index for individual entries
Answer as a number with no unit attached.

Solved cases below.
input: // query protein stability index value for entry S24Q
output: 1.97

input: // query protein stability index value for entry E17V
output: 2.91

input: // query protein stability index value for entry I18P
output: 3.43

input: // query protein stability index value for entry E11F
output: 1.29

input: // query protein stability index value for entry G6S
output: 1.85

input: // query protein stability index value for entry Q12C
output: 1.92

Further cases:
input: // query protein stability index value for entry D13M
output: 2.91

input: // query protein stability index value for entry R15H
output: 1.91

input: // query protein stability index value for entry R15D
output: 1.26

input: // query protein stability index value for entry F1W
output: 1.14

input: // query protein stability index value for entry V22M
output: 1.42
